# Test System: murine PD-L1 protein (Mus musculus, UniProt Q9EP73)
# Sequence (Q9EP73 19-290): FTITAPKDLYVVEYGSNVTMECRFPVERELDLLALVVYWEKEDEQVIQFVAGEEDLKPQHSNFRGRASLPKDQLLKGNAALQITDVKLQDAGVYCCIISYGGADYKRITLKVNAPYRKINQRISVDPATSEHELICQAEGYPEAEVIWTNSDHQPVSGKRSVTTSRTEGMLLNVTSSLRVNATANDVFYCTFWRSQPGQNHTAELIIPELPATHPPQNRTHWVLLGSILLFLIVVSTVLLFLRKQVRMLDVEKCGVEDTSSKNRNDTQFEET
pKd: −log10 of the molar value.
Reported Endpoint: pKd

Enquiry: Look up pKd: NC(=O)c1ccccc1NC(=O)c1ccc(-c2ccccc2)cc1
Return: < 4.00

Source: paper PMC7851350
